The reported measurements were obtained from patent US20070254831A1.

- measurementTarget: T1, soluble human FcRn (human, UniProt P55899 24-297; P61769 21-119, biotinylated (Sulfo-NHS-LC-Biotin) in the ELISA; amine-coupled to CM5 chip in SPR)
- T1 construct: also called shFcRn; biotinylated shFcRn
- T1 sequence (P55899 24-297 limits assumed, chain 1 of 2): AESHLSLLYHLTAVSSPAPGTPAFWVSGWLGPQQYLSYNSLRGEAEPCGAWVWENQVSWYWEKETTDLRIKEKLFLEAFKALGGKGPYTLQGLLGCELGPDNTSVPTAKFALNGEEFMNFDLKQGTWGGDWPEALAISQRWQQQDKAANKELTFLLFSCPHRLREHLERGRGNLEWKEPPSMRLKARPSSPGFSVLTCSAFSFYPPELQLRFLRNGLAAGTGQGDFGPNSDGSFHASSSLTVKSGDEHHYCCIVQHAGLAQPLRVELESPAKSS
- T1 sequence (P61769 21-119 limits assumed, chain 2 of 2): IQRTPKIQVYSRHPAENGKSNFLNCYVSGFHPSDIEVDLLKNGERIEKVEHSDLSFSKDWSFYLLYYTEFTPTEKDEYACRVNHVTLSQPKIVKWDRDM
- assayMethodText: ELISA, competitor human IgG
pIC50: −log10 of the molar value. Numbered stars: 1 amine (or outer) side, 2 acyl side, 3 side chain; on linkers, the order of the positions; unused ones are H or OH. Square brackets hold non-standard residues; d marks the D form. Ends that are not written are not given here. X3 = 3(S)‑3‑amino‑2‑oxo‑1‑azepine acetic acid, O=C1[C@@H](N[*:1])CCCCN1CC(=O)[*:2]; 6,5‑bicyclic dipeptide mimic = not defined here; NMeL = CN[C@@H](CC(C)C)C(=O)O; Sar = CNCC(=O)O
pIC50: recorded values
attributeMeasured: pIC50

[
  {
    "binder": "RFVTGHFG[Sar][NMeL]YPA-NH2 (N-terminus assumed; SMILES CC(C)C[C@@H](C(=O)N[C@@H](Cc1ccc(O)cc1)C(=O)N1CCC[C@H]1C(=O)N[C@@H](C)C(N)=O)N(C)C(=O)CN(C)C(=O)CNC(=O)[C@H](Cc1ccccc1)NC(=O)[C@H](Cc1c[nH]cn1)NC(=O)CNC(=O)[C@@H](NC(=O)[C@@H](NC(=O)[C@H](Cc1ccccc1)NC(=O)[C@@H](N)CCCNC(=N)N)C(C)C)[C@@H](C)O) [Peptide No. 236]",
    "attributeMeasured": "pIC50",
    "inequalitySign": "=",
    "measuredValue": 4.43
  },
  {
    "binder": "RFVTGHFXLYPA (X at 8 = 3-amino-N-1-carboxymethyl-2,3,4,5-tetrahydro-1H-[1]-benzazepine-2-one (drawing CHEM-US-00097); linear; C-terminal amide) [Peptide No. 185]",
    "attributeMeasured": "pIC50",
    "inequalitySign": "=",
    "measuredValue": 4.24
  },
  {
    "binder": "RFVTGHF[6,5‑bicyclic dipeptide mimic]LYPA-NH2 (reading uncertain) [Peptide No. 207]",
    "attributeMeasured": "pIC50",
    "inequalitySign": "<",
    "measuredValue": 3.90
  },
  {
    "binder": "RFVTGHFXLYPA (X at 8 = 3-amino-2-oxo-1-piperidine-acetic acid (drawing CHEM-US-00094); linear; C-terminal amide) [Peptide No. 182]",
    "attributeMeasured": "pIC50",
    "inequalitySign": "=",
    "measuredValue": 4.42
  },
  {
    "binder": "RFVTGHF[X3]LYPA-NH2 (N-terminus assumed; SMILES CC(C)C[C@H](NC(=O)CN1CCCC[C@H](NC(=O)[C@H](Cc2ccccc2)NC(=O)[C@H](Cc2c[nH]cn2)NC(=O)CNC(=O)[C@@H](NC(=O)[C@@H](NC(=O)[C@H](Cc2ccccc2)NC(=O)[C@@H](N)CCCNC(=N)N)C(C)C)[C@@H](C)O)C1=O)C(=O)N[C@@H](Cc1ccc(O)cc1)C(=O)N1CCC[C@H]1C(=O)N[C@@H](C)C(N)=O) [Peptide No. 208]",
    "attributeMeasured": "pIC50",
    "inequalitySign": "=",
    "measuredValue": 4.64
  }
]
